Listed binders paired with reported kon
experimentalTarget: T1, hIL2-DM-his (human, UniProt P60568 21-153)
T1 construct: expressed in ExpiCHO-S cells, nickel-column purified; also called hIL-2 mutein containing two point mutations K64G and N90R (with a his-tag); not shown: his-tag
T1 sequence (P60568 21-153 K84G/N110R): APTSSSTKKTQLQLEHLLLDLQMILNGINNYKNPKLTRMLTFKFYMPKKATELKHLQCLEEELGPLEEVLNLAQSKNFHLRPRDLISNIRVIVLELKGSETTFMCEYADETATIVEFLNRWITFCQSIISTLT
protocolDescription: BLI ForteBio, Ab on Protein A sensor
Quick reminder: number only, in M⁻¹ s⁻¹, skip the unit.

[[record]]
binder = "K1G12 (antibody, V domains shown) VH: QVQLVQSGAEVKKPGATVKISCKVSGDTITAYYMHWVRQAPGQGLEWIGRIDPDDDSTKYAENFKGRVTITADTSTDTAYMELSSLRSEDTAVYYCTTITFLYTRELRWFAYWGQGTLVTVSS VL: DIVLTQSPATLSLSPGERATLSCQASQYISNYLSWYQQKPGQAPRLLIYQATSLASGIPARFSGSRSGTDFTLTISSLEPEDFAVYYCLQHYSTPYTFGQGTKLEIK"
uom = "M⁻¹ s⁻¹"
recordednumber = 428000

[[record]]
binder = "K2G8 (antibody, V domains shown) VH: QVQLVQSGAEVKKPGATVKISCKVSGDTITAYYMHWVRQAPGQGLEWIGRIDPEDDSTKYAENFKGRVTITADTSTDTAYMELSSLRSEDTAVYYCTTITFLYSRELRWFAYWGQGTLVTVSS VL: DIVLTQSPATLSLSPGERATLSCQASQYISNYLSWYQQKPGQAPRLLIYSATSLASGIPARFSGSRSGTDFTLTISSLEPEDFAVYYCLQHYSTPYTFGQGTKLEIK"
uom = "M⁻¹ s⁻¹"
recordednumber = 448000


Problem: Which kon value is on record for K4G7 (antibody, V domains shown) VH: QVQLVQSGAEVKKPGATVKISCKVSGDTITAYYMHWVRQAPGQGLEWIGRIDPEDDSTKYAENFKGRVTITADTSTDTAYMELSSLRSEDTAVYYCTTITFYYTRELRWFAYWGQGTLVTVSS VL: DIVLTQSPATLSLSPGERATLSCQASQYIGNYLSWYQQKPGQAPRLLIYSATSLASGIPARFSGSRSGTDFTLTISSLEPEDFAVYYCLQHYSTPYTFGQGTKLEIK ?
Solution: 396000
